target: HIV-1 NL4-3 Env on infected cells (HIV-1 group M subtype B, NL4-3 (pNL4-3 …, strain))
recordedMetric: binding result

# binder, resultValue
measured = [
    ("c9370 (antibody, V domains shown) VH: EVQLVESGGGVVQPGGSLRLSCAASGFTFYSHTMIWVRQAPGKGPQYISHISSTGSNKDYSDSVKGRFTVSRDNDKNSLYLQMDSLRVEDTAIYYCARRSCSLTDCFVRSFSYDMDVWGQGTAVTVSS VL: QSALTQPASMSGSPGQSISISCTGTTSDIGGYDSVCWYRQHPGEAPTLLIYDVSNRPSGVSGRFSGSKSANTASLTISGLQAEDEADYYCSSYSTGSSLVVFGGGTKLTVI", "binds"),
    ("c9488 (antibody, V domains shown) VH: QVQLVQSGSEVKKPGASVKVSCKASDYTFPNFGISWLRQAPGQGLEWMGWIRGSDGETNYAQKFKDRVTLTTERSRGTAYMELRSLISDDTAVYYCARDLKWDCSKRGCPDYQWFDIWGQGTLVTVSS VL: DVVMTQSPLSLPVTLGQPASISCISSHSLVYTDGNTYLAWFQQRPGQSPRRLIYTVSKRDSGVPDRFSGSGSGTDFTLKISRVEAEDVGIYFCMQGRHWPYTFGQGTTLEIK", "binds"),
]
